assay: Parallel artificial membrane permeation assay (PAMPA); format: in vitro ADME; conditions: PAMPA; range over pH 7.4, 6.2, 5.0; read-out: membrane permeability (PAMPA), range over the pH values tested
OUTCOME MEASURE: Papp

Reported Papp, compound COC(=O)c1ccnc(-c2cn([C@@H]3CCCN(C(=O)c4ccccc4)C3)nn2)c1 [Compound 37] : ____
45 to 56 ×10⁻⁶ cm/s

Same question, O=C(O)c1ccnc(-c2cn([C@@H]3CCCN(C(=O)c4ccccc4)C3)nn2)c1 [Compound 35] this time
0.41 to 1.9 ×10⁻⁶ cm/s
